test_target: T1, human BCMA protein (human, UniProt Q02223 1-54, limits assumed)
T1 sequence: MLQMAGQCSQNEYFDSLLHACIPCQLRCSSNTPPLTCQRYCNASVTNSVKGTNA
test: affinity to human BCMA protein, method not stated
Field: pKd. Provide a value for each of the binders that follow.
Scale for pKd: -log10 of concentration given in mol/L; no unit attached.

Req: Record request: pKd value, item BCMA targeting trispecific protein 01D02 (other, trispecific; not shown: the C-terminal His6 follows those missing domains and is left out) VHH: EVQLVESGGGLVQPGRSLTLSCAASTNIVSISPMGWYRQAPGKQRELVAAIHGKSTLYADSVKGRFTISRDNAKNSIYLQMNSLRPEDTALYYCNKVPWGDYHPGNVYWGQGTQVTVSS
Resp: 8.13

Req: Record request: pKd value, item BCMA targeting trispecific protein 02B12 (other, not shown: large carriers; small tags and cut ends, trispecific) VHH: EVQLVESGGGLVQPGRSLTLSCAASTNISSISPMGWYRQAPGKQRELVAAIHGFDTLYADSVKGRFTISRDNAKNSIYLQMNSLRPEDTALYYCNKVPWGDYHPRNVYWGQGTQVTVSS
Resp: 7.60

Req: Record request: pKd value, item BCMA targeting trispecific protein 02H04 (other, trispecific; not shown: the C-terminal 6xHis tag follows those domains and is left out) VHH: EVQLVESGGGLVQPGRSLTLSCAASTNIFSVSPMGWYRQAPGKQRELVAAIHGNSTLYADSVKGRFTISRDNAKNSIYLQMNSLRPEDTALYYCNKVPWGDYHPRNVYWGQGTQVTVSS
Resp: 7.51

Req: Record request: pKd value, item BCMA targeting trispecific protein 01C06 (other, not shown: large carriers; small tags and cut ends, trispecific) VHH: EVQLVESGGGLVQPGRSLTLSCAASTNIFSISPMGWYRQAPGKQRELVAAIHGDSTLYADSVKGRFTISRDNAKNSIYLQMNSLRPEDTALYYCNKVPWGKYHPRNVYWGQGTQVTVSS
Resp: 7.73
